Sourced from ChEMBL document CHEMBL3988442

Recorded Percent Effect values for a group of compounds are listed next.
# experimental_target: Proteasome subunit beta (Trypanosoma cruzi) (UniProt O96673)
# Sequence (O96673 as listed by the source): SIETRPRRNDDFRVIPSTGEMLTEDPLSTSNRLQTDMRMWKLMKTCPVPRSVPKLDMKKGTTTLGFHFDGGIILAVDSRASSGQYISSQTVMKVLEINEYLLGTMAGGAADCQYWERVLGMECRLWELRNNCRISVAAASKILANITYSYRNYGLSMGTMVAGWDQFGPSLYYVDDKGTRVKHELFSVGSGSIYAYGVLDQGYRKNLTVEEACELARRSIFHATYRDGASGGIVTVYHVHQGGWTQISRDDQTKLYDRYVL
# measurement_description: Trypanosoma cruzi proteasome chymotrypsin-like activity (TcProtChymo) assay. Note: in the data most compounds retested in dose-response had high values.
# Type: functional
# Parameters: scale not given: direction of the effect not stated beside the values
# condition_label: 9.37 µM
Numbers only; they are read as %.

>>> observed_result("O=C(O)c1csc(S(=O)(=O)Nc2cccc(OC(F)F)c2)c1")
8.11

Percent Effect in this record for O=C(c1ccnnc1)N1C[C@@H](OCC2CCOCC2)[C@H]2OCCC[C@H]21 : 0.618

Percent Effect in this record for COCc1nc(C(=O)N2CCCC(n3cccn3)C2)cs1 (configuration not stated) : 8.6

Percent Effect in this record for COc1ccc(C(=O)NCCCn2ccnc2)c(OC)n1 : 10.6

Percent Effect in this record for Cc1cc(C(=O)NC2CCc3nc(C)cn3C2)[nH]n1 (configuration not stated) : 5.68

Percent Effect in this record for CCc1nc(C2CCCN2C(=O)c2ccc3c(c2)nc(C)n3C)no1 (configuration not stated) : 3.31

Percent Effect in this record for O=C(c1ccco1)N1CCC2(CCC(=O)N2Cc2cccc(F)c2)CC1 : 6.09

Percent Effect in this record for CCc1[nH]ncc1C(=O)N1CCCC(n2nc(C)nc2C)C1 (configuration not stated) : 2.82

Percent Effect in this record for CNC(=O)c1ccc(C2CN(C(=O)COC)CCO2)nc1 (configuration not stated) : 7.39

---

# experimental_target: Tyrosyl-tRNA synthetase, putative (Trypanosoma cruzi (strain CL Brener))
# measurement_description: Trypanosoma cruzi tyrosyl tRNA synthetase (TcYRS) SOP
# Format: functional
# Set-up: scale not given: direction of the effect not stated beside the values
# condition_label: 30 µM
measurement_name: Percent Effect (%)
Numbers only; they are read as %.

Take a look at these entries with their results.
>>> observed_result("O=C(Nc1cccc2c1CCCC2)C1CCCN1c1nccs1 (stereo unspecified)")
20.5
>>> observed_result("Cc1cc(-c2nn(C)c(Cl)c2CN2Cc3ccccc3C(O)C2)no1 (stereo unspecified)")
4.88
>>> observed_result("COc1ccc(OCCN(C)C(=O)NC(C)c2nncn2C)cc1 (stereo unspecified)")
12.8
>>> observed_result("Cc1ccc(Oc2ccc(NC(=O)NCC3CCOC3)cn2)cc1C (stereo unspecified)")
20.5
>>> observed_result("CN(C)c1ccccc1C(=O)N1C[C@@H](CN2CCCCC2)[C@@H](CO)C1")
12.2
>>> observed_result("Cc1ccc(-c2nc(CCNC(=O)NC3CCN(C)CC3)co2)cc1")
5.13
>>> observed_result("CCCc1n[nH]cc1C(=O)N1CCC(c2nccn2CCOC)CC1")
12.2
>>> observed_result("Cc1noc(C2CCN(C(=O)c3ccc(NC4CC4)nc3)CC2)n1")
20.5

Percent Effect in this record for CN(CC(=O)N1CCCN(Cc2cscn2)CC1)c1cnccn1 : 4.71

Percent Effect in this record for CC(CC#N)NC(=O)c1cc(Br)c2c(c1)OCCO2 (stereo unspecified) : 2.56

Percent Effect in this record for O=C(C1CC1)N1CC[C@H](O)[C@@H]1Cc1ccccc1 : 2.5

---

# experimental_target: AMP-activated protein kinase, AMPK (Homo sapiens) (UniProt P54646+O43741+P54619+Q9UGJ0+Q9Y478+Q13131+Q9UGI9)
# measurement_description: AMP-dependent Kinase enzyme assay. An in vitro enzyme assay that detects ADP turnover that is directly proportional to AMPK activity. This uses naive AMPK that is activated during the assay with MK-8722
# Assay type: functional
# Set-up: scale not given: direction of the effect not stated beside the values
# condition_label: 30 µM
measurement_name: Percent Effect (%)
Numbers only; they are read as %.

Take a look at these entries with their results.
>>> observed_result("COCC1(Nc2nc(C)nc3c2cnn3C)CCCC1")
-2.92
>>> observed_result("CC(C)(C)C(=O)N1CCCC1c1cc(CO)[nH]n1 (stereo unspecified)")
14.4
>>> observed_result("CC(C)c1noc(CN2CCN(C(=O)OC(C)(C)C)C(C)C2)n1 (stereo unspecified)")
-3.51

Percent Effect in this record for Cc1ccnc2c1NC(=O)CN2C(=O)CCC(F)(F)F : 1.79

Percent Effect in this record for CCN(C)S(=O)(=O)N[C@H]1CN(c2ccc(F)cn2)C[C@@H]1C(C)C : -6.05

Percent Effect in this record for Cc1cc(CN2CCC(c3cc(Cc4ccccc4)n[nH]3)CC2)[nH]n1 : -6.49

---

# experimental_target: Protein translocase subunit SecA (Escherichia coli (strain K12)) (UniProt P10408)
# Sequence (P10408 whole entry): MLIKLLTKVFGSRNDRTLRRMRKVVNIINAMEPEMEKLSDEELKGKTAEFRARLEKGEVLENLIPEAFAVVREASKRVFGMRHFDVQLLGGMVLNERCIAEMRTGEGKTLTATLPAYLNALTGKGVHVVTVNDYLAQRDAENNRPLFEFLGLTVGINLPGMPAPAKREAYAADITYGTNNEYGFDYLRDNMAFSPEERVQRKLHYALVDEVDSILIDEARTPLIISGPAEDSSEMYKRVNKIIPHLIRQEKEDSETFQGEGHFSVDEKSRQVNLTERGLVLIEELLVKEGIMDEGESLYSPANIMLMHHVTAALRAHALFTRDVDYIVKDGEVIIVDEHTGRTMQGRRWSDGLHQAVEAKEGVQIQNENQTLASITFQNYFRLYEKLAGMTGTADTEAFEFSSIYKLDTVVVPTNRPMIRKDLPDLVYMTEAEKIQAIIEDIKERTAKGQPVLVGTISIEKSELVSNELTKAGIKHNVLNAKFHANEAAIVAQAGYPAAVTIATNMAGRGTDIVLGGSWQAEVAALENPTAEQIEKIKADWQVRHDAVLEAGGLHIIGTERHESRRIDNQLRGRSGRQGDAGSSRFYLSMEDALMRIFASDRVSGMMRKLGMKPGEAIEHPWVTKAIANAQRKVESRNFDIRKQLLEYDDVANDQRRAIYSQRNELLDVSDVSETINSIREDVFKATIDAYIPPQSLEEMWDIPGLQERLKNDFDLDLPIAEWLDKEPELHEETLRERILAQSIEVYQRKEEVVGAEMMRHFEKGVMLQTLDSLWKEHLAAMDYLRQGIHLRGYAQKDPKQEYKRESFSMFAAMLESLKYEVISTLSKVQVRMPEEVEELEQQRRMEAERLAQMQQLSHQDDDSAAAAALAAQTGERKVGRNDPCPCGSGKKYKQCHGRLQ
# measurement_description: Assay to Identify E. coli SecA ATPase Inhibitors
# Type: functional
# Parameters: scale not given: direction of the effect not stated beside the values
# condition_label: 30 µM
Potency and affinity values are given separately.
measurement_name: Percent Effect (%)
Numbers only; they are read as %.

>>> observed_result("Cc1cc(N2CCC(NC(=O)C3CC3)CC2)nc(-c2ccncc2)n1")
-0.846

Record for O=C(N1CCCC1)N1CCC2(CCCN(CCOc3ccccc3)C2)C1 (stereo unspecified) under target or system Protein translocase subunit SecA (Escherichia coli (strain K12)) (UniProt P10408): Percent Effect reported as -5.49

Record for Cn1c(CN2CCCC2c2noc(C3CC3)n2)cc(=O)n(C)c1=O (stereo unspecified) under target or system Protein translocase subunit SecA (Escherichia coli (strain K12)) (UniProt P10408): Percent Effect reported as -8.17

Record for COCCN1CCN(Cc2ccc(F)c(C)c2)[C@H]2CS(=O)(=O)C[C@H]21 under target or system Protein translocase subunit SecA (Escherichia coli (strain K12)) (UniProt P10408): Percent Effect reported as -6.45

Record for O=C(O)c1cc(S(=O)(=O)N2CCOc3ccccc32)ccc1F under target or system Protein translocase subunit SecA (Escherichia coli (strain K12)) (UniProt P10408): Percent Effect reported as -6.51

Record for Cc1cc(CN(C)C(=O)c2ccc(C(F)(F)F)nc2)no1 under target or system Protein translocase subunit SecA (Escherichia coli (strain K12)) (UniProt P10408): Percent Effect reported as -1.51

Record for Fc1ccc(CN2CCC(c3n[nH]c4ncccc34)CC2)cc1F under target or system Protein translocase subunit SecA (Escherichia coli (strain K12)) (UniProt P10408): Percent Effect reported as -7.07

Record for CC(C(=O)N1CCCC1)N1CCC(c2nccn2Cc2cscn2)CC1 (stereo unspecified) under target or system Protein translocase subunit SecA (Escherichia coli (strain K12)) (UniProt P10408): Percent Effect reported as -2.34

Record for O=C1CO[C@@H]2CN(Cc3cccs3)C[C@H]2N1CC1CC1 under target or system Protein translocase subunit SecA (Escherichia coli (strain K12)) (UniProt P10408): Percent Effect reported as -6.35

Record for CCc1ncc2c(n1)CN(CC(=O)Nc1nnc(C)s1)CC2 under target or system Protein translocase subunit SecA (Escherichia coli (strain K12)) (UniProt P10408): Percent Effect reported as -2.11

Record for CCc1cc(O)nc(C2CCCN2C(=O)c2cccnc2)n1 (stereo unspecified) under target or system Protein translocase subunit SecA (Escherichia coli (strain K12)) (UniProt P10408): Percent Effect reported as 5.68

---

# experimental_target: AMP-activated protein kinase, AMPK (Homo sapiens) (UniProt P54646+O43741+P54619+Q9UGJ0+Q9Y478+Q13131+Q9UGI9)
# measurement_description: AMP-dependent Kinase enzyme assay. An in vitro enzyme assay that detects ADP turnover that is directly proportional to AMPK activity. This uses naive AMPK that is activated during the assay with MK-8722
# Assay type: functional
# Parameters: scale not given: direction of the effect not stated beside the values
# condition_label: 30 µM
measurement_name: Percent Effect (%)
Numbers only; they are read as %.

Take a look at these entries with their results.
>>> observed_result("c1ccc2c(NC3CCc4ncnn4C3)ncnc2c1 (configuration not stated)")
2.92
>>> observed_result("CN(C)CCN(Cc1cccc(F)c1)C(=O)c1ccn(C)c(=O)c1")
9.63
>>> observed_result("CN(Cc1ccc2c(c1)OCO2)Cc1cscn1")
-5.54
>>> observed_result("COCCC(=O)N1CCCC(CCc2ccc(F)c(F)c2)C1 (configuration not stated)")
8.62
>>> observed_result("Cc1n[nH]c(C)c1CNc1ccc(-c2nc(C3CC3)no2)cn1")
-4.61

Percent Effect in this record for CCOc1cccc(CN(Cc2cnn(C)c2)CC(C)C)c1O : -9.84

Percent Effect in this record for COc1c(C2CCCN2CC(=O)Nc2nccs2)c(C)nn1C (configuration not stated) : 7.38

Percent Effect in this record for Cc1ncn(CCNC(=O)Nc2ccccc2)c(=O)c1C : -8.41

Percent Effect in this record for Cc1noc(CCCC(=O)N2CSCC2C(=O)NCC2CC2)n1 (configuration not stated) : -0.369

Percent Effect in this record for CC(C)(C)NC(=O)CN1CCNCC1 : 1.56

Percent Effect in this record for O=C1C(N2CC[C@@H](O)C2)CCCN1Cc1cccc(C(F)(F)F)c1 (some centres not stated) : 5.51

Percent Effect in this record for COC(=O)C(NC(=O)c1cc(C)ccc1C)c1cccnc1 (configuration not stated) : 1.93
